The reported numbers originate from patent US10174067B2.

Tumor volume, Day 4 reference
# Test system: HCT-116 colon cancer xenografts
# run.description: Tumor growth inhibition of HCT-116 colon cancer xenografts in tumor-bearing nude mice (tumor volume, TGI %, RTV, T/C %)
# Type: in vivo, Balb/c Nude mice
# run.parameters: Day 4; G10-G16 groups; single IP 400 mg/kg; Mean±SEM
Marks after values point to notes of the source that are not given here.

{"compound": "CCCCOC(=O)Nc1nc(=O)n([C@@H]2O[C@H](COC(=O)Cn3cnc([N+](=O)[O-])c3)C(O)C2(F)F)cc1I (some centres unmarked) [Compound G12]", "Tumor volume, Day 4": "123.31 ± 27.06** mm^3"}
{"compound": "O=C(COc1nc(Cl)c(Cl)cc1Cl)OC[C@H]1O[C@@H](n2cc(Br)c(NC(=O)OCc3ccccc3)nc2=O)C(F)(F)C1O (some centres unmarked) [Compound G10]", "Tumor volume, Day 4": "154.33 ± 27.49** mm^3"}
{"compound": "O=C(COc1nc(Cl)c(Cl)cc1Cl)OCC1OC(n2cc(-c3cn(Cc4ccccc4)nn3)c(NC(=O)OCc3ccc([N+](=O)[O-])cc3)nc2=O)C(F)(F)C1O (centres unmarked) [Compound G13]", "Tumor volume, Day 4": "77.58 ± 16.80** mm^3"}
{"compound": "CCCCOC(=O)Nc1nc(=O)n(C2OC(COC(=O)COc3nc(Cl)c(Cl)cc3Cl)C(O)C2(F)F)cc1-c1cn(Cc2ccccc2)nn1 (centres unmarked) [Compound G15]", "Tumor volume, Day 4": "95.41 ± 22.57** mm^3"}
{"compound": "CCCCOC(=O)Nc1nc(=O)n(C2OC(COC(=O)COc3nc(Cl)c(Cl)cc3Cl)C(O)C2(F)F)cc1I (centres unmarked) [Compound G11]", "Tumor volume, Day 4": "129.69 ± 43.49** mm^3"}

----------
# Tested on: HCT-116 colon cancer xenografts
# run.description: Tumor growth inhibition of HCT-116 colon cancer xenografts in tumor-bearing nude mice (tumor volume, TGI %, RTV, T/C %)
# Assay type: in vivo, Balb/c Nude mice
# run.parameters: Day 4; G10-G16 groups; single IP 400 mg/kg

{"molecule": "CCCCOC(=O)Nc1nc(=O)n(C2OC(COC(=O)COc3nc(Cl)c(Cl)cc3Cl)C(O)C2(F)F)cc1-c1cn(Cc2ccccc2)nn1 (stereo not drawn) [Compound G15]", "target.desc": "HCT-116 colon cancer xenografts", "display.unit": "%", "Day 4 (TGI %)": 67.87}
{"molecule": "CCCCOC(=O)Nc1nc(=O)n(C2OC(COC(=O)COc3nc(Cl)c(Cl)cc3Cl)C(O)C2(F)F)cc1Br (stereo not drawn) [Compound G16]", "target.desc": "HCT-116 colon cancer xenografts", "display.unit": "%", "Day 4 (TGI %)": 52.31}
{"molecule": "CCCCOC(=O)Nc1nc(=O)n(C2OC(COC(=O)COc3nc(Cl)c(Cl)cc3Cl)C(O)C2(F)F)cc1I (stereo not drawn) [Compound G11]", "target.desc": "HCT-116 colon cancer xenografts", "display.unit": "%", "Day 4 (TGI %)": 56.33}
{"molecule": "O=C(COc1nc(Cl)c(Cl)cc1Cl)OCC1OC(n2cc(-c3cn(Cc4ccccc4)nn3)c(NC(=O)OCc3ccc([N+](=O)[O-])cc3)nc2=O)C(F)(F)C1O (stereo not drawn) [Compound G13]", "target.desc": "HCT-116 colon cancer xenografts", "display.unit": "%", "Day 4 (TGI %)": 73.88}
{"molecule": "CCCCOC(=O)Nc1nc(=O)n([C@@H]2O[C@H](COC(=O)Cn3cnc([N+](=O)[O-])c3)C(O)C2(F)F)cc1I (stereo partly drawn) [Compound G12]", "target.desc": "HCT-116 colon cancer xenografts", "display.unit": "%", "Day 4 (TGI %)": 58.48}
{"molecule": "O=C(COc1nc(Cl)c(Cl)cc1Cl)OC[C@H]1O[C@@H](n2cc(Br)c(NC(=O)OCc3ccccc3)nc2=O)C(F)(F)C1O (stereo partly drawn) [Compound G10]", "target.desc": "HCT-116 colon cancer xenografts", "display.unit": "%", "Day 4 (TGI %)": 48.03}
